FYI, the data here is from PubChem BioAssay (NCI).

# Tested on: MOLT-4 leukemia
# measurement description: NCI-60 one-dose screen, 48 h
# measurement context: 10 µM unless noted
# Description: Growth inhibition of the MOLT-4 human tumor cell line is measured as a screen for anti-cancer activity. Cells are grown in 96 well plates and exposed to the test compound for 48 hours. Compounds are tested at a single concentration, which is 10^-5 M for most compounds. The reported endpoint is percent growth (GI% or GIPRCNT), where numbers from 0 - 100% represent growth inhibition, and numbers from -100% - 0 represent cell death. For example, a value of 40 represents 60% growth inhibition. […]
This is part of a sample that, as a whole, favours compounds with a hit. Of some 83,000 tested, about 20% had one in any assay. The source made the active and inactive calls. The calls were made as follows: active = growth percent below 10; inactive = the rest.
The reply should be one of these categories: class 1 = active, class 0 = inactive

Prompt: Could you kindly confirm the outcome this assay logged for COc1ccc(C2NC(=O)Nc3ccccc32)c(OC)c1 (configuration not stated) ?
Response: class 0

Prompt: Look up the recorded call for `O=c1[nH]c2c3ccncc3cc(-c3cccc(Cl)c3)c2c2cnccc12` in this test.
Response: class 0

Prompt: Short answer needed: outcome of this test for `CCCCC[C@H]1CC=C2C(=O)C(Cl)=C[C@@H]2CC=CCCCC(=O)O[C@@H](CCCCC)CC=C2C(=O)C(Cl)=C[C@@H]2CC=CCCCC(=O)O[C@@H](CCCCC)CC=C2C(=O)C(Cl)=C[C@@H]2CC=CCCCC(=O)O1` ?
Response: class 0

Prompt: # fetch the recorded call for `Cc1cccc2c1NC(=O)[C@@]21[C@H](C(=O)c2ccccc2)[C@]2(C(=O)Nc3ccccc32)[C@H]2CCCN21` here
Response: class 0

Prompt: What classification did `Cn1c(=O)c2c(ncn2CC(=O)Nc2ccc(S(N)(=O)=O)cc2)n(C)c1=O` end up with in this test?
Response: class 0

Prompt: Which result was noted for this compound in the test: CC(=O)O[C@H]1CC[C@@]2(C)[C@@H](CC[C@@H]3[C@@H]2CC(=O)[C@@]2(C)[C@H]3C[C@@H](C3CCCC3=O)[C@@H]2C(C)=O)C1 (some centres not stated)
Response: class 0

Prompt: Can you look up the reported call for `COc1cnc2c(c1)C(=O)c1c-2n(CCCNC2=NCCS2)c(=O)c2cc([N+](=O)[O-])ccc12` for me?
Response: class 1

---

# System: UACC-62 melanoma
# measurement description: NCI-60 one-dose screen, 48 h
# measurement context: 10 µM unless noted
This is part of a sample that, as a whole, favours compounds with a hit. Of some 83,000 tested, about 20% had one in any assay. The source made the active and inactive calls. Rule for the calls: active = growth percent below 10; inactive = the rest.
Field 'call' accepts active, inactive

Prompt: Field: outcome | Entry: c1ccc(C2Cc3ccccc3C2=NC2CCCCC2)cc1 (stereo not given)
Response: inactive

Prompt: For `NC(N)=N/N=C/c1ccc(-c2ccc(-c3ccc(Cl)cn3)s2)cc1` , which call appears in the assay record?
Response: inactive

Prompt: Called result for `C/C(=N\Nc1cc(C)c2ccccc2n1)c1ccccn1`
Response: active

Prompt: # outcome recorded in this test, key = `CC1(C)C(=O)CC[C@]2(C)[C@H]3C(=O)C=C4[C@@H]5C[C@@](C)(C(=O)NCCNCCN)CC[C@]5(C)CC[C@@]4(C)[C@]3(C)CC[C@@H]12`
Response: inactive

Prompt: Please let me know the test result on file for `CCCCCCCCNc1cccc2c1C(=O)c1ccccc1C2=O` .
Response: inactive

Prompt: Hey, what did the test say about `CN(C)c1cccc2[nH]c(-c3[nH]ncc3Nc3ccnc(N)n3)nc12` ?
Response: active

Prompt: # lookup: test call for `O=c1[nH]c(=S)[nH]c2nc[nH]c12`
Response: inactive

Prompt: // return assay outcome for `COc1cc2nc(Cl)nc(Nc3cccc(C(=O)/C=C/c4ccccc4)c3)c2cc1OC`
Response: inactive

Prompt: Could you please tell me the result logged for Nc1nc2c(c(=O)[nH]1)C(c1ccc3c(c1)OCO3)C=C(C(=O)O)N2 (stereo not given) in this assay?
Response: inactive

Prompt: Assay result, entry `COc1cc(-c2nc(-c3ccccc3)c(-c3ccccc3)[nH]2)cc(OC)c1O` — outcome?
Response: active
